The values you see were collected from patent US20110059095A1.

Exercise: for every item that follows, state its recorded T1/2.
Biological target: T1, Peptide I (dog PAR-2) (Dog (Canis familiaris))
T1 peptide: GTNRTSKGRSLIGKTDSS
Test: SPR, antibody captured
Provide the reading as a plain figure in s.

Could you share which T1/2 value was measured for H4H585P (antibody, human IgG4, V domains shown, also called H1H585P variable regions) VH: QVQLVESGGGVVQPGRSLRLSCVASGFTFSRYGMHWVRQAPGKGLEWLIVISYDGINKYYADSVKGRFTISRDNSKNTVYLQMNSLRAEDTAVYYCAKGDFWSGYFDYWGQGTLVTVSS VL: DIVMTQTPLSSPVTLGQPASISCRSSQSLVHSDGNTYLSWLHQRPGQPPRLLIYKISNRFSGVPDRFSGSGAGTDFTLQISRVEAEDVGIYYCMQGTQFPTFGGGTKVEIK ? 11.4

Entry H4H581P (antibody, human IgG4, V domains shown, also called mAb H4H581P; H1H581P variable regions) VH: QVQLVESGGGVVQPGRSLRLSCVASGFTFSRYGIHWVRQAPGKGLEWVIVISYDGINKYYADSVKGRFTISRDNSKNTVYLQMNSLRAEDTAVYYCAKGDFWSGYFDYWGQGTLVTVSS VL: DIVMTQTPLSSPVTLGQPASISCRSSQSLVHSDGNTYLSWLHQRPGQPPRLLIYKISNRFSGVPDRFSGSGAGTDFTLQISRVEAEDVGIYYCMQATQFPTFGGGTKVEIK has what T1/2? 4.2

Given the entry H4H583P (antibody, human IgG4, V domains shown, also called H1H583P variable regions) VH: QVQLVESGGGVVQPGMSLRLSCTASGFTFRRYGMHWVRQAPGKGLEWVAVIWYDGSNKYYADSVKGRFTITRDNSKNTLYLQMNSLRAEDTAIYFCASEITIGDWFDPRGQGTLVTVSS VL: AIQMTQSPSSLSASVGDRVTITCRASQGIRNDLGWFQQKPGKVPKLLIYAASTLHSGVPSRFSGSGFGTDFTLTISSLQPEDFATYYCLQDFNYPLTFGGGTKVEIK , report its measured T1/2. 9.6

// lookup T1/2 for H4H579P (antibody, human IgG4, V domains shown, also called H1H579P variable regions) VH: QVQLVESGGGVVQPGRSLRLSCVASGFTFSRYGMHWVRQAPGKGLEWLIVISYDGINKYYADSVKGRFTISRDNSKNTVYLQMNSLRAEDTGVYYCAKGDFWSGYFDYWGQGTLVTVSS VL: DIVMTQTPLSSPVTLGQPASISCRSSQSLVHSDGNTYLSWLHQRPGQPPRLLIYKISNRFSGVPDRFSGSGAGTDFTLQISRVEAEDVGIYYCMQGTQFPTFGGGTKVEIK 15.6
